Origin of values: PubChem BioAssay (NCI)

Below: a set of entries, each annotated with reported GI50.
System: HCT-15 colon
experimental details: NCI tumour cell line growth inhibition, 48 h

Some molecules with known GI50 results, for comparison:
* COc1cc(C2CC(c3ccc(SC)cc3)=NN2C(C)=O)cc(OC)c1OC (stereo not given) | 5.09 µM
* CSc1ccc(C2=NN(c3ccccc3)C(c3ccc(-c4cc(Cl)c(Cl)cc4Cl)o3)C2)cc1 (stereo not given) | > 100 µM
* CN(c1ccc(Cl)c(Cl)c1)c1cnc2cc(N)cc(N)c2n1 | 4.57 µM
* O=C(/C=C/c1c(-c2ccccc2)[nH]c2ccccc12)S(=O)(=O)c1ccccc1 | 6.42 µM

Field: next molecule
Which value of GI50 has been reported for `CN(C)CCNc1c2c(c(NCCN(C)C)c3c(CN(C)C)c[nH]c13)C(=O)c1ccccc1C2=O` in the records?
1.35 µM

---

Tested on: A549 NSCLC
experimental details: NCI tumour cell line growth inhibition, 48 h
metric: TGI

• CCC(=O)Nc1cccc(NC(=O)c2c(Cl)c(Cl)c(Cl)c(Cl)c2-c2nc3ccccc3[nH]2)c1 = > 100 µM

Query for A549 NSCLC: what TGI does the record show for `CC(C)(C)c1ccc2c(c1)OP1(Oc3cccc4cccnc34)(O2)Oc2ccc(C(C)(C)C)cc2O1` ?
> 54.7 µM

Thanks! And `COc1cc(/C=C/c2cc(/C=C/c3ccc(O)c(OC)c3)n(C(=O)Cc3ccccc3)n2)ccc1O` ?
16.6 µM

Thanks! And CC(C#N)NCc1ccc(C(C)NC(C)C#N)cc1 (stereo not given) ?
> 100 µM

Thanks! And OCc1cc2c([nH]c3ccccc32)c(C(O)CO)n1 (stereo not given) ?
> 100 µM

Thanks! And O=C(Nc1ccn(C2CCC(CO)O2)c(=O)n1)c1ccccc1 (stereo not given) ?
> 100 µM

Thanks! And CCOC(=O)/C=C1/Oc2ccccc2C1(C)O (stereo not given) ?
> 100 µM

Thanks! And `CN1CCN(CCCNN)CC1` ?
> 100 µM

Thanks! And `O=C(C(=O)c1cc(-c2ccccc2)nc2ccc3ccccc3c12)c1ccccc1` ?
> 100 µM

Thanks! And O=c1[nH]c2cc([N+](=O)[O-])ccc2nc1/C(=N/Nc1ccccc1)C(O)c1ccc(Cl)cc1Cl (stereo not given) ?
> 100 µM

---

System: NCI-H226 lung
experimental details: NCI tumour cell line growth inhibition, 48 h
Where a SMILES comes first, the peptide text is derived from it. [ ]: non-standard residue; d: D form. ξ: configuration not given here. ξThz(5,5-Me2) = CC1(C)SCNC1C(=O)O
metric: TGI

- C#CC1(O)C(COP(=O)(O)OC(COCCCCCCCCCCCCCCCCCC)COP(=O)(O)OCC2OC(n3cc(C)c(=O)[nH]c3=O)CC2N=[N+]=[N-])OC(n2ccc(N)nc2=O)C1O (configuration not stated): > 91.2 µM

Which value of TGI has been reported for O=c1[nH]c2cc([N+](=O)[O-])ccc2nc1/C(=N/Nc1ccccc1)C(O)c1ccc(Cl)cc1Cl (configuration not stated) in the records?
> 100 µM

Thanks! And COc1ccc(P2(=S)OCCOP(=S)(c3ccc(OC)cc3)S2)cc1 (configuration not stated) ?
> 100 µM

Thanks! And `C[Si](C)(C)CNC(=O)OCc1ccccc1` ?
> 100 µM

Thanks! And `CN(c1ccc(Cl)c(Cl)c1)c1cnc2cc(N)cc(N)c2n1` ?
33.9 µM

Thanks! And CC(=O)N(C)C(C(=O)N1CC(C)CC1C(=O)N(C)C1C(=O)NC(CC(C)C)C(=O)N2CC(C)CC2C(=O)NC(CC(C)C)C(=O)N(C)C(C(C)C)C(=O)N2CCCC2C(=O)N(C)C(CC(C)C)C(=O)NCC(=O)OC1C)C(C)C (configuration not stated) ?
> 100 µM

Thanks! And CSCC[C@H](NC(=O)[C@H](CC(C)C)NC(=O)[C@H](Cc1c[nH]cn1)NC(=O)CNC(=O)C1N(C(=O)[C@@H](C)NC(=O)[C@H](Cc2c[nH]c3ccccc23)NC(=O)[C@H](CCC(N)=O)NC(=O)[C@@H](N)CC(N)=O)CSC1(C)C)C(N)=O (some centres not stated) (H-NQW[dA][ξThz(5,5-Me2)]GHLM-NH2) ?
> 25 µM

Thanks! And `O=C(c1ccc(Oc2ccccc2)cc1Cl)c1c[nH]c2ncnc(N[C@@H]3CC[C@@H](CO)OC3)c12` ?
23.6 µM

Thanks! And `CCOC(=O)c1c(Sc2ccc([N+](=O)[O-])cc2[N+](=O)[O-])nc2c3ccccc3ccn12` ?
> 100 µM

Thanks! And `CCn1cc(C(=O)O)c(=O)c2ccc(C)nc21` ?
> 100 µM

Thanks! And `CC1(C)COC(c2ccccc2-c2ccccc2)=N1` ?
> 100 µM

Thanks! And `CC[C@H]1CC(=O)c2c(cc3c(c2O)C(=O)c2ccccc2C3=O)[C@@]1(C#N)C(=O)OC(C)(C)C` ?
8.82 µM

Thanks! And CCOC(=O)CCC(C(=O)OCC)n1nc2ccc(Nc3c(C)[n+]([O-])c4ccc(Cl)cc4[n+]3[O-])cc2n1 (configuration not stated) ?
51.5 µM

Thanks! And Clc1ccc(Cc2nc3cc(Cl)c(Cl)cc3n2CC2CCCN3CCCCC23)cc1Cl (configuration not stated) ?
26.8 µM

---

Tested on: MALME-3M melanoma
experimental details: NCI tumour cell line growth inhibition, 48 h
metric: TGI

* C1C[OH+]CCNCC[OH+]CC[OH+]CCN1.O.[Cl-].[Pt+4] | > 100 µM
* CNc1ccccc1S(=O)(=O)c1ccccc1[N+](=O)[O-] | > 100 µM
* O=C1C(Cl)=C(Cl)C(Cl)(Cl)C(Cl)C1(Cl)Cl (stereo not given) | 49.5 µM
* COc1ccccc1N=NC(C(=O)c1ccccc1)C(=O)c1ccccc1 | 88.9 µM

Which value of TGI has been reported for `N#CC1(C#N)C(c2ccc(C3C(C#N)(C#N)C3(C#N)C#N)cc2)C1(C#N)C#N` in the records?
> 100 µM

Thanks! And CCOC(=O)/C=C1/Oc2ccccc2C1(C)O (stereo not given) ?
> 100 µM

Thanks! And Cc1ccc(S(=O)(=O)N/N=C2/C3CCC(C3)C2c2ccccc2)cc1 (stereo not given) ?
> 100 µM

Thanks! And `CCCCc1ccc(NS(=O)(=O)c2cc3c4c(c2)CCN4C(=O)CC3)cc1` ?
> 100 µM

Thanks! And CCCCCCCCCCCCCCCCOCC(Cl)CP(=O)(O)OP(=O)(O)OCC1OC(n2cnc3c(N)ncnc32)C(O)C1O (stereo not given) ?
> 100 µM

Thanks! And `C(=N\c1cc2cc(Sc3ccccc3)ccc2[nH]1)/c1ccccc1` ?
> 12.5 µM

---

System: NCI-H522 lung
experimental details: NCI tumour cell line growth inhibition, 48 h; in the data active = GI50 below about 0.43 µM; inactive = the rest
Parameter call: string, one of active, inactive

* CO[C@@H](C)Cn1c(=O)n(C)c2cnc3ccc(-c4cncc(C(C)(C)O)c4)cc3c21 | active

Field: outcome | Entry: `Cn1cc(-c2csc(-c3c[nH]c4ccc(F)cc34)n2)c2cccnc21`
inactive

Thanks! And `COc1ccc(/C=C/C(=O)c2c(O)c(C)c(O)c3c2OC2=CC(O)=C(C(C)=O)C(=O)[C@]23C)cc1` ?
inactive

Thanks! And `CN(c1ccc(C(=O)O)cc1)c1cc(O/N=[N+](\[O-])N(C)C)c([N+](=O)[O-])cc1[N+](=O)[O-]` ?
inactive

Thanks! And C=C(C)[C@@H]1/C=C(/C(C)C)CC[C@@]2(C)OC2CC[C@H](C)CC1=O (stereo not given in full) ?
inactive

---

Test system: MDA-MB-231 breast
experimental details: NCI tumour cell line growth inhibition, 48 h
Below: a set of entries, each annotated with reported TGI.

Some molecules with known TGI results, for comparison:
- CCn1cc(C(=O)O)c(=O)c2ccc(C)nc21: > 100 µM
- COC1=CC(=O)c2c(c(-c3csc(C)n3)cn2C)C1=O: > 86.6 µM
- CCCCN(CC)C(=O)C1=C(C)NC(C)=C(C(=O)N(CC)CCCC)C1: > 100 µM
- CSc1ccc(C2=NN(c3ccccc3)C(c3ccc(-c4cc(Cl)c(Cl)cc4Cl)o3)C2)cc1 (centres undefined): > 100 µM
- c1ccc(COC2NCCN2Cc2ccccc2)cc1 (centres undefined): > 100 µM

Which value of TGI has been reported for `CCOc1ccccc1/C=C(/C#N)C(N)=O` in the records?
> 100 µM

Thanks! And COC(=O)C1=CC(=O)OC1(OO)c1ccc(Br)cc1 (centres undefined) ?
> 100 µM

Thanks! And CC(CN(C)C)C(C#N)(c1ccccc1)c1ccccc1 (centres undefined) ?
> 100 µM

Thanks! And `COc1cc2c(cc1OCCCCCN1C(=O)c3cccc4cccc(c34)C1=O)N=C[C@@H]1CCCN1C2=O` ?
> 100 µM

Thanks! And COC(=O)N/N=C(/CC1(O)C(=O)Nc2ccc([N+](=O)[O-])cc21)c1ccccc1 (centres undefined) ?
44 µM

Thanks! And `Cn1cc(-c2csc(-c3c[nH]c4ccc(F)cc34)n2)c2cccnc21` ?
> 100 µM

Thanks! And `O=C1c2ccccc2C(=O)N1[C@@H](Cc1ccccc1)C(=O)n1cccc1CO` ?
> 100 µM

Thanks! And `O=C(c1ccc(Oc2ccccc2)cc1Cl)c1c[nH]c2ncnc(N[C@@H]3CC[C@@H](CO)OC3)c12` ?
1.74 µM

Thanks! And NC(CCCCO)C(=O)O (centres undefined) ?
> 100 µM
